# Method summary: Oxidation breakdown on gassing with dry air at 140° C., 2.5 hours
# Type: physicochemical
# Measurement parameters: 36 liters dry air per hour, 150 ml urea, decrease of urea based on starting content
Quantity name: Oxidation Breakdown After 2.5 hours (%)
Write the number in % without appending the unit.

Illustrative cases are given below, each with its answer.
INSERT INTO results (molecule, measured_result) VALUES
  ('CCCCN(CCCC)C(=O)N(CC)CC [N,N-diethyl-N'',N''-dibutylurea, reference compound]', 9.2),
  ('CC(C)N(C(=O)N(C)c1ccccc1)C(C)C [N,N-di-i-propyl-N''-methyl-N''-phenylurea]', 0),
  ('CCCCN(CCCC)C(=O)N(C)c1ccccc1 [N,N-dibutyl-N''-methyl-N''-phenylurea]', 0);

Which Oxidation Breakdown After 2.5 hours value belongs to CCC(C)N(C)C(=O)N(C)c1ccccc1 (stereo not shown) [N,N'-dimethyl-N-s-butyl-N'-phenylurea] ?
0

---

# Method summary: Oxidation resistance of hydroquinone solvents, gassing with dry air at 140° C., 50 hours
# Type: physicochemical
# Measurement parameters: 36 liters dry air per hour, 150 ml solvent; gas chromatography
Quantity name: Hydroquinone Solvent Content (%) after 50 hours Gassing at 140° C.
Report only the number, with the unit % understood.

INSERT INTO assay_data (compound, measured_result) VALUES
  ('CCCN(CCC)C(=O)N(C)c1ccccc1', 100.0),
  ('CCCCN(CCCC)C(=O)N(CC)CC [N,N-diethyl-N'',N''-dibutylurea, reference compound]', 86.6),
  ('CCCCC(CC)COP(=O)(OCC(CC)CCCC)OCC(CC)CCCC (centres unmarked) [tris-2-ethylhexyl phosphate]', 88.3);

Requested read-out: Hydroquinone Solvent Content (%) after 50 hours Gassing at 140° C.. Entry: CC(C)CC(O)CC(C)C
16.6

Any idea what Hydroquinone Solvent Content (%) after 50 hours Gassing at 140° C. was measured for CCCCN(CCCC)C(=O)N(C)c1ccccc1 ?
100.0

---

# Method summary: Oxidation breakdown on gassing with dry air at 140° C., 2.5 hours
# Assay type: physicochemical
# Measurement parameters: 36 liters dry air per hour, 150 ml urea, decrease of urea based on starting content
# Procedure: In a gassing apparatus equipped with gassing frit and intensive condenser in each case gassing was carried out with 150 ml of the ureas set forth in Table 4 using 36 liters of dry air per hour at a temperature of 140° C. for 2.5 hours. During the test half hourly samples were drawn off and the oxidative breakdown followed by means of capillary gas chromatography. As a measure for the oxidative breakdown the decrease of the amount of urea in percentage based on the starting urea content is used.
Quantity name: Oxidation Breakdown After 2.5 hours (%)
Response body: numeric value in %, unit text excluded.

As a guide, the following entries are already answered.
INSERT INTO measurements (molecule, measured_result) VALUES
  ('CCN(CC)C(=O)N(C)c1ccccc1', 0),
  ('CCCN(CCC)C(=O)N(C)c1ccccc1', 0),
  ('CC(C)N(C(=O)N(C)C)C(C)C [N,N-dimethyl-N''-di-i-propylurea, reference compound]', 2.6),
  ('CN(C)C(=O)N(C)c1ccccc1', 0);

// below: Oxidation Breakdown After 2.5 hours requested for another molecule
Would you mind telling me what Oxidation Breakdown After 2.5 hours value was observed for CN(C(=O)N1CCOCC1)c1ccccc1 ?
0
